# Measured On: T1, CCR1 (Homo sapiens, UniProt P32246)
# T1 sequence (P32246 1-355): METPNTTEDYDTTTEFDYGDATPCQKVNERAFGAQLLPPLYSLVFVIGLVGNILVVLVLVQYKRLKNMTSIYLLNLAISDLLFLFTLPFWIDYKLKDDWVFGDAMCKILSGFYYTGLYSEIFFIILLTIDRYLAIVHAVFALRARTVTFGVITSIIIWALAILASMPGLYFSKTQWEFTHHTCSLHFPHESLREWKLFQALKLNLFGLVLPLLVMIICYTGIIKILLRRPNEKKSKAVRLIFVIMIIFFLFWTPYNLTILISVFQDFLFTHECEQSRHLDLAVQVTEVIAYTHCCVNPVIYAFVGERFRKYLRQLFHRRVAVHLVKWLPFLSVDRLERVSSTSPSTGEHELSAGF
# Protocol Text: Intracellular Ca2+ mobilization via CCR1
# Type: cell-based
# Set-up: endogenous in cells; host or cells: THP-1, monocytes, neutrophils, immature DC (endogenous); also HEK293-CCR1 and NSO-CCR1 transfectants
# Experimental Conditions: HEK293-CCR1, THP-1 and monocytes
Measurement Type: Ca2+ mobilization in HEK293-CCR1, THP-1 and monocytes

# Molecule, Data Value
records = [
    ("mMIP-1γ: CCR1 ligand (protein) QITHATETKEVQSSLKAQQGLEIEMFHMGFQDSSDCCLSYNSRIQCSRFIGYFPTSGGCTRPGIIFISKRGFQVCANPSDRRVQRCIERLEQNSQPRTYKQ", "able to mobilize Ca2+"),
    ("CKβ8 (1-99) (ligand, The numbers 1-99 count on the mature chemokine, not on the precursor; also called CCL23 (99-amino acid form)) RVTKDAETEFMMSKLPLENPVLLDRFHATSADCCISYTPRSIPCSLLESYFETNSECSKPGVIFLTKKGRRFCANPSDKQVQVCMRMLKLDTRIKTRKN", "able to mobilize Ca2+"),
    ("MIP-1α: CC chemokine, CCR1 ligand (protein) ADTPTACCFSYTSRQIPQNFIADYFETSSQCSKPGVIFLTKRSRQVCADPSEEWVQKYVSDLELSA", "able to mobilize Ca2+"),
    ("Leukotactin (ligand) SFHFAADCCTSYISQSIPCSLMKSYFETSSECSKPGVIFLTKKGRQVCAKPSGPGVQDCMKKLKPYSI", "able to mobilize Ca2+"),
]
